- Protocol Text: self-splicing fitness, log relative to wild type (ln ratio); higher = more splicing; Tetrahymena group I intron in knt gene, E. coli kanamycin selection, DiMSum; sequences stand for … in CUCUCU…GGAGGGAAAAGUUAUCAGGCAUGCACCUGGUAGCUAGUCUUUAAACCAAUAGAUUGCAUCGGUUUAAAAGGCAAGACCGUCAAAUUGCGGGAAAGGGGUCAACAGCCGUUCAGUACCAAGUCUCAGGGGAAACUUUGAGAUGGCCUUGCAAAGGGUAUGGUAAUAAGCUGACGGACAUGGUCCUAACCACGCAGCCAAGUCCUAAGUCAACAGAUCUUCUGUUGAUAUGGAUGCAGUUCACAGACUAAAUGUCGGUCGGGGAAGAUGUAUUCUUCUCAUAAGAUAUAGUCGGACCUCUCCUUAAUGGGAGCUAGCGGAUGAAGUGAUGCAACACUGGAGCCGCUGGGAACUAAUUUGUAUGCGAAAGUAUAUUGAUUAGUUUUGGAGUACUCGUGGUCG;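 also: selection with 25 µg/mL kanamycin versus none on LB agar overnight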
- Experimental Conditions: 37 °C
Each entry below carries its recorded self-splicing fitness (ln).
Measure Name: self-splicing fitness (ln)

{"columns": ["Chain Sequence", "Recorded Measurement"],
 "data": [
  ["CCGUAGCAAUAUUACGUUUA", -3.04],
  ["AGCAAGCAAUAUUACGACUU", -0.294],
  ["UUUUAGCAAUAUUACGUCGA", 0.0877],
  ["CCCAAGCAAUAUUACGGGCU", -2.31],
  ["GACUAGCAAUAUUACGUGUU", -2.07],
  ["GAUUAGCAAUAUUACGGCUG", -0.513],
  ["UUGGAGCAAUAUUACGAUUC", -1.85],
  ["UGUAAGCAAUAUUACGGCCA", -0.0953],
  ["GCUAAGCAAUAUUACGAGUA", -1.31],
  ["CGGCAGCAAUAUUACGCGUG", -0.594],
  ["GCGUAGCAAUAUUACGACAA", -0.789]
]}
